Answer each item with its documented cell viability.
Test system: Calu-3
Test: cell viability relative to DMSO; higher = less toxic
Details: 72 h; 100 nM
Give bare numbers, in %.

# annotated cases, reported cell viability shown
• Nc1nc(F)nc2c1ncn2[C@@H]1O[C@H](CO)[C@@H](O)[C@@H]1O = 95.2
• N#Cc1c(Oc2ccc(F)c(NC(=O)Cc3cccc(C(F)(F)F)c3)c2)ccc2nc(NC(=O)C3CC3)sc12 = 110
• CCCc1c(OCCCCc2nnn[nH]2)ccc(C(C)=O)c1O = 107
• COc1ccc(NC(=O)c2ccc(C(=N)N(C)C)cc2)c(C(=O)Nc2ccc(Cl)cn2)c1 = 105
• O=[N+]([O-])c1cn2c(n1)OC[C@@H](OCc1ccc(-c3ccc(OC(F)(F)F)cc3)nc1)C2 = 106

Quick one: give me cell viability for each item below, same order please.
1. CCN1/C(=C/C(C)=O)Sc2ccc(OC)cc21
2. CC(C)(C)c1ccc(/C=C/C(=O)Nc2ccc3c(c2)OCCO3)cc1
3. CCCN1CCC[C@@H]2Cc3nc(N)ncc3C[C@H]21
4. Cn1cc(C2=C(c3cn(CCCSC(=N)N)c4ccccc34)C(=O)NC2=O)c2ccccc21 [bisindolylmaleimide-IX]

106
101
93.2
100

Okay, here is my list. What is cell viability for each of these?
1. Cc1ccc(S(=O)(=O)n2c(N)nc3ccccc32)cc1
2. FC(F)(F)c1cc(CO[C@H]2CCCN[C@H]2c2ccccc2)cc(C(F)(F)F)c1
3. N#Cc1cnc2c(Cl)cc(NCc3cn(CCN4CCCCCC4)nn3)cc2c1Nc1ccc(F)c(Cl)c1
4. C=CCN1CCc2cc(O)c(O)cc2[C@H](c2ccccc2)C1
5. CCN1C(C)(C)CC(Oc2ccc(C(=O)Nc3ccc(NC(=O)Nc4cc(C(C)(C)C)on4)cc3)nc2)CC1(C)C
6. Cc1cc(-n2c(=O)[nH]c(=O)n(C)c2=O)ccc1Oc1ccc(SC(F)(F)F)cc1
7. COC(=O)C1=C(C)NC(C)=C(C(=O)OCC(C)C)C1c1ccccc1[N+](=O)[O-] (stereo not drawn)

[99.5, 102, 99.5, 103, 97.4, 105, 107]

Hello, I would appreciate it if you could give cell viability for each entry below.
1. CO[C@H]1O[C@@H]2O[C@@]3(C)CC[C@H]4[C@H](C)CC[C@@H]([C@H]1C)[C@@]24OO3
2. CCCCCNC(=N)N/N=C/c1c[nH]c2ccc(OC)cc12

1: 96.3; 2: 97.9
